test system: 857933-349-R-J2-PDC complex spheroid viability; assay: Anticancer human tumor 857933-349-R-J2-PDC patient-derived colon adenocarcinoma cell line growth inhibition [POLQ]; details: second compound 3.16 µM; first compound 10 µM; active means viability on the fitted dose curve at most 10% of control; inactive means the rest;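 further: spheroids exposed to compounds for seven days before readout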
# output must be one of true for active, false for inactive

• COc1cccc2c1C(=O)c1c(O)c3c(c(O)c1C2=O)CC(O)(C(=O)CO)CC3OC1CC(N)C(O)C(C)O1 (stereo not drawn) + Cc1cccc(N(C)C(=O)C2C(O)CCN2c2nc(C)cc(C(F)(F)F)c2C#N)c1 = true
• CNCc1ccc(-c2[nH]c3cc(F)cc4c3c2CCNC4=O)cc1 + Nc1ccc(C#CCN(C(=O)Cc2ncc(C(F)(F)F)cc2C(F)(F)F)c2ccc(F)cc2)nn1 = false
• O=c1[nH]cc(F)c(=O)[nH]1 + COC1C(OC(N)=O)C(O)C(Oc2ccc3c(O)c(NC(=O)c4ccc(O)c(CC=C(C)C)c4)c(=O)oc3c2C)OC1(C)C = false
• CCc1cc2c(N3CCc4c(cc(Cn5ccnc5)cc4-c4cn(C)nc4C(F)(F)F)C3=O)cc(C)nc2c(OC)n1 + Nc1ccc(C#CCN(C(=O)Cc2ncc(C(F)(F)F)cc2C(F)(F)F)c2ccc(F)cc2)nn1 = false
• CCc1cc2c(N3CCc4c(cc(Cn5ccnc5)cc4-c4cn(C)nc4C(F)(F)F)C3=O)cc(C)nc2c(OC)n1 + COC1C(OC(N)=O)C(O)C(Oc2ccc3c(O)c(NC(=O)c4ccc(O)c(CC=C(C)C)c4)c(=O)oc3c2C)OC1(C)C = false

Request: Give the logged outcome of this assay for the following compound: C#Cc1c(F)ccc2cc(O)cc(-c3ncc4c(N5CC6CCC(C5)N6)nc(OCC56CCCN5CC(F)C6)nc4c3F)c12 (stereo not drawn) + COC1C(OC(N)=O)C(O)C(Oc2ccc3c(O)c(NC(=O)c4ccc(O)c(CC=C(C)C)c4)c(=O)oc3c2C)OC1(C)C
Result: false

Request: Field entry: CC1COCCN1c1cc(-c2ccnn2C)c2ccnc(-c3ccn[nH]3)c2n1 (stereo not drawn) + COC1C(OC(N)=O)C(O)C(Oc2ccc3c(O)c(NC(=O)c4ccc(O)c(CC=C(C)C)c4)c(=O)oc3c2C)OC1(C)C
Result: false

Request: Field entry: CCCS(=O)(=O)Nc1ccc(F)c(C(=O)c2c[nH]c3ncc(-c4ccc(Cl)cc4)cc23)c1F + COC1C(OC(N)=O)C(O)C(Oc2ccc3c(O)c(NC(=O)c4ccc(O)c(CC=C(C)C)c4)c(=O)oc3c2C)OC1(C)C
Result: false
